measurement-parameters: 303.15 K; 101 kPa; Liquid; Vibrating tube method
reported-metric: mass density (kg/m3)

- test-smiles: "COCCO"
  units-symbol: "kg/m3"
  result-number: 955.74
- test-smiles: "CCOCCO"
  units-symbol: "kg/m3"
  result-number: 921.21
- test-smiles: "CCCCOCCO"
  units-symbol: "kg/m3"
  result-number: 892.28
- test-smiles: "CN1CCCC1=O"
  units-symbol: "kg/m3"
  result-number: 1023.45

====

measurement-parameters: 313.15 K; 101 kPa; Liquid; Vibrating tube method
reported-metric: mass density (kg/m3)

- test-smiles: "CCCCOCCO"
  result-number: 884.17
- test-smiles: "CN1CCCC1=O"
  result-number: 1014.82
- test-smiles: "CCOCCO"
  result-number: 911.88
- test-smiles: "COCCO"
  result-number: 946.25
